# TESTED ON: DNA topoisomerase 2-alpha (Homo sapiens)
# ASSAY SUMMARY: Inhibition of human topoisomerase 2alpha-mediated relaxation of double-stranded pRYG DNA at 100 uM by agarose gel electrophoresis
Calls of active or inactive are those of the source. The calls are words filed in the database; no cut-off is given here.
In this exercise, the only acceptable responses are active, inactive

Solved entries:
C[C@H]1CC2=C(CO1)C(=O)c1c(O)cc(O)cc1C2=O | active
COc1cc(O)c2c(c1)C(=O)C1=C(CO[C@@H](C)C1)C2=O | active
COc1cc([C@@H]2c3cc4c(cc3[C@@H](O[C@@H]3O[C@@H]5CO[C@@H](C)O[C@H]5[C@H](O)[C@H]3O)[C@H]3COC(=O)[C@H]23)OCO4)cc(OC)c1O | active
COc1cc(O)c2c(c1)C(=O)C1=C(C2=O)[C@@H](C)O[C@@H](C)C1 | inactive

Outcome logged for "COc1cc(OC)c2c(c1)C(=O)C1=C(CO[C@@H](C)C1)C2=O" in this assay: active

Just curious, what result did "Cc1c2ccncc2c(C)c2c1[nH]c1ccccc12" get here? active

----------
# Tested on: Nucleic Acid
# ASSAY SUMMARY: Induction of DNA intercalation in pRYG DNA at 100 uM by agarose gel electrophoresis
# Type: nucleic-acid assay
Active and inactive are the calls of the source. The calls are words filed in the database; no cut-off is given here.
Give your call using only these classes: YES for active, NO for inactive

Some solved entries appear below for comparison.
COc1ccc2c(c1)C(=O)C1=C(C[C@H](CC(=O)O)O[C@@H]1C)C2=O (racemic) | NO
C[C@H]1CC2=C(CO1)C(=O)c1c(O)cc(O)cc1C2=O | NO
CC(C)Oc1cc(OC(C)C)c2c(c1)C(=O)C1=C(CO[C@@H](C)C1)C2=O | NO

Per the assay record, what outcome was assigned to "C[C@H]1O[C@@H](CC(=O)O)CC2=C1C(=O)c1ccccc1C2=O" ? NO

Hey, what did the test say about "C[C@H]1CC2=C(C(=O)c3c(O)cc(O)cc3C2=O)[C@H](O)O1" ? NO

Dear colleague, could you share the recorded outcome for "COc1cc(OC)c2c(c1)C(=O)C1=C(CO[C@@H](C)C1)C2=O" when you have a moment? NO

Please indicate how the test categorized "C[C@H]1CC2=C(C(=O)c3c(O)cccc3C2=O)[C@@H](C)O1" . NO

Recorded call for "COc1cccc2c1C(=O)C1=C(C[C@H](C)O[C@@H]1C)C2=O" ? NO

Just curious, what result did "COc1cc(OC)c2c(c1)C(=O)C1=C(C2=O)[C@@H](C)O[C@@H](C)C1" get here? NO

Tell me the assay call for "COc1cc(O)c2c(c1)C(=O)C1=C(CO[C@@H](C)C1)C2=O" please. NO

How did this test come out for "COc1cc([C@@H]2c3cc4c(cc3[C@@H](O[C@@H]3O[C@@H]5CO[C@@H](C)O[C@H]5[C@H](O)[C@H]3O)[C@H]3COC(=O)[C@H]23)OCO4)cc(OC)c1O" ? NO

Tell me the recorded outcome of this test for "COc1cc(O)c2c(c1)C(=O)C1=C(C2=O)[C@@H](C)O[C@@H](C)C1" . NO

For "C[C@H]1CC2=C(C(=O)c3ccccc3C2=O)[C@@H](C)O1" , what call appears in the results of this test? NO

Hi, do you know how "C[C@H]1CC2=C(C(=O)c3ccccc3C2=O)[C@H](O)O1" came out in this test? NO

Hi team, can someone confirm the assay call for "C[C@@H]1CC2=C(C(=O)c3ccccc3C2=O)[C@H](C)O1" ? NO

State the result this test recorded for "Cc1c2ccncc2c(C)c2c1[nH]c1ccccc12" . YES
